# inhibition at 10 µM per entry
- Test system: CYP3A
- ASSAY_REMARKS: CYP inhibition
- MEASUREMENT_SETUP: human, human liver microsomes, probe midazolam, CYP3A inhibition, HLM, midazolam substrate
Please respond with the number in % and leave the unit unwritten.

MOLECULE | UNIT_ABBREV | inhibition at 10 µM
C[C@H]1COc2c(N3CC[C@@H](Nc4ncccn4)C3)c(F)cc3c(=O)c(C(=O)O)cn1c23 [Compound 46] | % | 25.2

// below: inhibition at 10 µM requested for another molecule
**Q:** Give me measured inhibition at 10 µM, please, for this molecule: Cc1cc(C)nc(N[C@@H]2CCN(c3c(F)cc4c(=O)c(C(=O)O)cn5c4c3OC[C@@H]5C)C2)n1 [Compound 50]
**A:** 10.5

----------
# MIC listing for each entry below
- System: S. aureus
- ASSAY_REMARKS: Serial passaging, MIC of adapted strains
- Format: cell-based
- MEASUREMENT_SETUP: Staphylococcus aureus, 1199B adapted to 4 x MIC of Compound 46
// note: answer is a bare numeric in µg/mL

MOLECULE | TARGET_ENTITY | MEASURED_METRIC | NUMERIC_RESULT
Cc1cc(C)nc(N[C@@H]2CCN(c3c(F)cc4c(=O)c(C(=O)O)cn5c4c3OC[C@@H]5C)C2)n1 | S. aureus | MIC | 0.125
COc1c(N2CC[C@@H](Nc3ncccn3)C2)c(F)cc2c(=O)c(C(=O)O)cn(C3CC3)c12 | S. aureus | MIC | 0.03

**Q:** Provide only the value of recorded MIC for C[C@H]1COc2c(N3CC[C@@H](Nc4ncccn4)C3)c(F)cc3c(=O)c(C(=O)O)cn1c23
**A:** 0.125

**Q:** Provide one value: measured MIC of C[C@H]1COc2c(N3CCN(C)CC3)c(F)cc3c(=O)c(C(=O)O)cn1c23 [Levofloxacin, reference compound]
**A:** 2

----------
- Tested on: S. aureus
- ASSAY_REMARKS: MIC (microbroth dilution)
- Format: cell-based, Staphylococcus aureus
- MEASUREMENT_SETUP: Staphylococcus aureus, NCTC13277, NCTC 13277; read-out: MIC
# MIC listing for each entry below
Field: numeric (µg/mL). Do not append units.

STRUCTURE_NOTATION | MIC, µg/mL
O=C(O)c1cn(C2CC2)c2cc(N3CCN(Cc4cccc5ccsc45)CC3)c(F)cc2c1=O | 2

Here's the next entry for you.
**Q:** Given CCn1cc(C(=O)O)c(=O)c2cc(F)c(N3CCN(Cc4cccc5c4CCCC5)CC3)cc21 , respond with its MIC.
**A:** 2

----------
Catalogue of MIC +50 (0.5x MIC) values
- Tested on: A. baumannii
- ASSAY_REMARKS: A. baumannii efflux chequerboard assay
- Assay type: cell-based, Acinetobacter baumannii
- MEASUREMENT_SETUP: A. baumannii ATCC 17978

Before answering, review these 3 worked examples.
MOLECULE | MIC +50 (0.5x MIC)
CNC(C)C1CCC(N)C(OC2C(N)CC(N)C(OC3OCC(C)(O)C(NC)C3O)C2O)O1 (stereo not drawn) | 0.03 to 1.75 µg/mL
O=C(N[C@H](CO)[C@H](O)c1ccc([N+](=O)[O-])cc1)C(Cl)Cl | 56 µg/mL
NC[C@H]1O[C@H](O[C@H]2[C@H](O)[C@@H](O[C@H]3O[C@H](CO)[C@@H](O)[C@H](N)[C@H]3O)[C@H](N)C[C@@H]2N)[C@H](N)C[C@@H]1O | 0.014 to 0.55 µg/mL

**Q:** Specify MIC +50 (0.5x MIC) for O=C(O)c1cn(C2CC2)c2cc(N3CCNCC3)c(F)cc2c1=O [Ciprofloxacin, ciprofloxacin, reference compound] and stop.
**A:** 0.007 to 0.055 µg/mL

**Q:** For the molecule CC(C)(O/N=C(\C(=O)N[C@@H]1C(=O)N2C(C(=O)[O-])=C(C[n+]3ccccc3)CS[C@H]12)c1csc(N)n1)C(=O)O , report MIC +50 (0.5x MIC).
**A:** 0.003 to 0.438 µg/mL

**Q:** Identify measured MIC +50 (0.5x MIC) corresponding to C[C@H]1COc2c(N3CCN(C)CC3)c(F)cc3c(=O)c(C(=O)O)cn1c23 [Levofloxacin, reference compound]
**A:** 0.009 to 0.06 µg/mL
